Attribution: patent US20240108738A1

Target: T1, Human NKp46 Fc tag (Acro Biosystems, NC1-H5257) (human, UniProt O76036 22-255)
T1 construct: bought; also called Fc-tagged human NKp46
T1 sequence (O76036 22-255 limits assumed): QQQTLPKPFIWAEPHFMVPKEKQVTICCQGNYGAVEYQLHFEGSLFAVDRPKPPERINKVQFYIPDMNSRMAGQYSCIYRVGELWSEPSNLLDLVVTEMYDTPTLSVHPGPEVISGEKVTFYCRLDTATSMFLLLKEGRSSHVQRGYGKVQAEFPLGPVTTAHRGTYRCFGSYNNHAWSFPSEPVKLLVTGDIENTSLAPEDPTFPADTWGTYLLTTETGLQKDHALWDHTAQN
Experiment: SPR Method 1 and/or 2
Procedure: The SPR analysis was run at 25° C. and a flow rate of 50 μl/min with 60 seconds association and 200-400 seconds dissociation time. Data were corrected for DMSO excluded volume effects. All data were double-referenced for blank injections and reference surface using standard processing procedures and data processing and kinetic fitting were performed using Scrubber software, version 2.0c (BioLogic Software). […]
Numbered stars: 1 amine (or outer) side, 2 acyl side, 3 side chain; on linkers, the order of the positions; unused ones are H or OH. Bridge positions count the residues as written; N and C are the ends. Square brackets hold non-standard residues; d marks the D form. Ends that are not written are not given here. TATA = O=C(CC[*:1])N1CN(C(=O)CC[*:2])CN(C(=O)CC[*:3])C1; 4Pal = N[C@@H](Cc1ccncc1)C(=O)O; Cba = N[C@@H](CC1CCC1)C(=O)O; Nle = CCCC[C@H](N)C(=O)O
We begin with a simple list: items and their reported Kd.
Write it as a number; the unit nM goes unstated.

Solved cases (3 shown):
ACY[Cba]PDYLC[dA]DEYCA-NH2 (linker 2-9-14 via TATA; N-terminus assumed; SMILES CC(C)C[C@@H]1NC(=O)[C@H](Cc2ccc(O)cc2)NC(=O)[C@H](CC(=O)O)NC(=O)[C@@H]2CCCN2C(=O)[C@H](CC2CCC2)NC(=O)[C@H](Cc2ccc(O)cc2)NC(=O)[C@@H](NC(=O)[C@H](C)N)CSCCC(=O)N2CN3CN(C2)C(=O)CCSC[C@H](NC1=O)C(=O)N[C@H](C)C(=O)N[C@@H](CC(=O)O)C(=O)N[C@@H](CCC(=O)O)C(=O)N[C@@H](Cc1ccc(O)cc1)C(=O)N[C@H](C(=O)N[C@@H](C)C(N)=O)CSCCC3=O, scaffold TATA) [BCY16132]
3.9
Ac-C[4Pal][Cba]PDYLC[dA]DEYC-NH2 (linker 1-8-13 via TATA; SMILES CC(=O)N[C@H]1CSCCC(=O)N2CN3CN(C2)C(=O)CCSC[C@H](NC(=O)[C@H](CC(C)C)NC(=O)[C@H](Cc2ccc(O)cc2)NC(=O)[C@H](CC(=O)O)NC(=O)[C@@H]2CCCN2C(=O)[C@H](CC2CCC2)NC(=O)[C@H](Cc2ccncc2)NC1=O)C(=O)N[C@H](C)C(=O)N[C@@H](CC(=O)O)C(=O)N[C@@H](CCC(=O)O)C(=O)N[C@@H](Cc1ccc(O)cc1)C(=O)N[C@H](C(N)=O)CSCCC3=O, scaffold TATA) [BCY18437]
47
Ac-CN[Cba]PDYLC[dA]DEYC-NH2 (linker 1-8-13 via TATA; SMILES CC(=O)N[C@H]1CSCCC(=O)N2CN3CN(C2)C(=O)CCSC[C@H](NC(=O)[C@H](CC(C)C)NC(=O)[C@H](Cc2ccc(O)cc2)NC(=O)[C@H](CC(=O)O)NC(=O)[C@@H]2CCCN2C(=O)[C@H](CC2CCC2)NC(=O)[C@H](CC(N)=O)NC1=O)C(=O)N[C@H](C)C(=O)N[C@@H](CC(=O)O)C(=O)N[C@@H](CCC(=O)O)C(=O)N[C@@H](Cc1ccc(O)cc1)C(=O)N[C@H](C(N)=O)CSCCC3=O, scaffold TATA) [BCY18435]
91

Now examine the next entry.
Per the record, ACDLTTHNCQWG[Nle]CA-NH2 (linker 2-9-14 via TATA; N-terminus assumed; SMILES CCCC[C@@H]1NC(=O)CNC(=O)[C@H](Cc2c[nH]c3ccccc23)NC(=O)[C@H](CCC(N)=O)NC(=O)[C@@H]2CSCCC(=O)N3CN(CN(C3)C(=O)CCSC[C@@H](C(=O)N[C@@H](C)C(N)=O)NC1=O)C(=O)CCSC[C@H](NC(=O)[C@H](C)N)C(=O)N[C@@H](CC(=O)O)C(=O)N[C@@H](CC(C)C)C(=O)N[C@@H]([C@@H](C)O)C(=O)N[C@@H]([C@@H](C)O)C(=O)N[C@@H](Cc1c[nH]cn1)C(=O)N[C@@H](CC(N)=O)C(=O)N2, scaffold TATA) [BCY19734] has Kd of 611
